- test_parameters: basic group
List of pKa values.
measured_property: pKa

                                    compound  measured_property  result
 0                    CCn1c(=O)n(C)c2ccccc21                pKa    -3.7
 1  CCCCCCCCCCCCN(CCO)CC(O)CC (centres undefined)                pKa     6.4
 2                   Nc1nc([S-])c2[nH]cnc2n1                pKa     8.2
 3                              CC/C(=N/O)NO                pKa    5.15
 4             c1ccc(CCNc2ncnc3nc[nH]c23)cc1                pKa     4.2
 5                             CCCNCc1ccccc1                pKa    9.62
 6   [NH3+]c1ccc(-c2cnc(-c3ccc(Cl)cc3)o2)cc1                pKa    0.27
 7                             CN(C)C1CCCCC1                pKa    10.5
 8                    Nc1nccc(-c2csc(N)n2)n1                pKa       4
 9                         Cc1nc([O-])n[nH]1                pKa    9.43
10                     Nc1cccc2nc3ccccc3cc12                pKa    6.04
11                               C=Cc1ccccn1                pKa    4.92
12  CC(O)CN(CCO)C(C)(C)C (centres undefined)                pKa     9.2
13                            CN(CCC#N)CCC#N                pKa    4.24
14                             COCCNc1ccccc1                pKa    4.05
15       Cc1nc2c(n1C)C(=O)c1ncnc([O-])c1C2=O                pKa    6.15
16                           CN(C)C(C)(C)C=O                pKa     8.4
17  COc1ccc(N)cc1C(=O)N[C@@H]1C[C@H]2CC[C@@H](C1)N2Cc1ccccc1                pKa    8.86
18                       c1ccc(CNc2nccs2)cc1                pKa    5.15
19                                     CCNCl                pKa    0.93
20                 CCn1cc(C#N)c(=O)c2ccccc21                pKa   -1.55
21                                 CCSC(C)=N                pKa     6.9
22      CCNC(C)C(=O)[O-] (centres undefined)                pKa    10.2
23              [NH3+]c1ccccc1-c1nc2ccccc2s1                pKa    -1.8
